Reported ζ-average particle size values are given for each entry in this list.
- Assay text: Average particle size and polydispersity index of lipid nanoparticles (dynamic light scattering)
- Assay type: physicochemical
- Study conditions: Table 3; Fluc mRNA-loaded lipid nanoparticles; TxT/DSPC/chol/PEG-DMG=50/3/47/1.5 (mol%)

Compound | ζ-average particle size (nm)
CCCCCCC(CCCC)CNC(=O)CCCC(=O)OCC(COC(=O)CCCC(=O)NCC(CCCC)CCCCCC)(COC(=O)CCCC(=O)NCC(CCCC)CCCCCC)NC(=O)CCN1CCCCC1 (stereo not drawn) [TxT-5-5A12β] | 96.0
CCCCCCCCC(CCCCCC)CNC(=O)CCCC(=O)OCC(COC(=O)CCCC(=O)NCC(CCCCCC)CCCCCCCC)(COC(=O)CCCC(=O)NCC(CCCCCC)CCCCCCCC)NC(=O)CCN1CCCCC1 (stereo not drawn) [TxT-5-5A16β] | 89.4
CCCCCCCCN(CCCCCCCC)C(=O)CCCC(=O)OCC(COC(=O)CCCC(=O)N(CCCCCCCC)CCCCCCCC)(COC(=O)CCCC(=O)N(CCCCCCCC)CCCCCCCC)NC(=O)CCN1CCCCC1 [TxT-5-5A16] | 114.0
CCCCC(CC)CN(CC(CC)CCCC)C(=O)CCCC(=O)OCC(COC(=O)CCCC(=O)N(CC(CC)CCCC)CC(CC)CCCC)(COC(=O)CCCC(=O)N(CC(CC)CCCC)CC(CC)CCCC)NC(=O)CCN1CCCCC1 (centres unmarked) [TxT-5-5A16b] | 103.7
CCCCCCC(CCCCCC)COC(=O)CCCC(=O)OCC(COC(=O)CCCC(=O)OCC(CCCCCC)CCCCCC)(COC(=O)CCCC(=O)OCC(CCCCCC)CCCCCC)NC(=O)CCN1CCCCC1 [TxT-5-5E14] | 95.7

---

- Assay text: Average particle size and polydispersity index of lipid nanoparticles (dynamic light scattering)
- Assay type: physicochemical
- Study conditions: Table 5; EGFP mRNA-loaded lipid nanoparticles; TxT/DSPC/chol/PEG-DMG=50/3/47/1.5 (mol%); total flow rate 3.0 mL/min
Parameter: number average particle size. Scope: all listed entries.

Compound | number average particle size
CCCCCCC(CCCCCC)COC(=O)CCCC(=O)OCC(COC(=O)CCCC(=O)OCC(CCCCCC)CCCCCC)(COC(=O)CCCC(=O)OCC(CCCCCC)CCCCCC)NC(=O)CCN1CCCCC1 | 71.1 nm
CCCCCCCCC(CCCCCC)CNC(=O)CCCC(=O)OCC(COC(=O)CCCC(=O)NCC(CCCCCC)CCCCCCCC)(COC(=O)CCCC(=O)NCC(CCCCCC)CCCCCCCC)NC(=O)CCN1CCCCC1 (centres unmarked) | 80.1 nm
CCCCCCC(CCCC)CNC(=O)CCCC(=O)OCC(COC(=O)CCCC(=O)NCC(CCCC)CCCCCC)(COC(=O)CCCC(=O)NCC(CCCC)CCCCCC)NC(=O)CCN1CCCCC1 (centres unmarked) | 81.9 nm
CCCCCCCCN(CCCCCCCC)C(=O)CCCC(=O)OCC(COC(=O)CCCC(=O)N(CCCCCCCC)CCCCCCCC)(COC(=O)CCCC(=O)N(CCCCCCCC)CCCCCCCC)NC(=O)CCN1CCCCC1 | 112.5 nm
CCCCCCN(CCCCCC)C(=O)CCCC(=O)OCC(COC(=O)CCCC(=O)N(CCCCCC)CCCCCC)(COC(=O)CCCC(=O)N(CCCCCC)CCCCCC)NC(=O)CCN1CCCCC1 | 80.2 nm
CCCCCCCN(CCCCCCC)C(=O)CCCC(=O)OCC(COC(=O)CCCC(=O)N(CCCCCCC)CCCCCCC)(COC(=O)CCCC(=O)N(CCCCCCC)CCCCCCC)NC(=O)CCN1CCCCC1 | 80.9 nm
CCCCCCCCCCN(CCCCCCCCCC)C(=O)CCC(=O)OCC(COC(=O)CCC(=O)N(CCCCCCCCCC)CCCCCCCCCC)(COC(=O)CCC(=O)N(CCCCCCCCCC)CCCCCCCCCC)NC(=O)CCN1CCCCC1 | 110.1 nm
CCCCC(CC)CN(CC(CC)CCCC)C(=O)CCCC(=O)OCC(COC(=O)CCCC(=O)N(CC(CC)CCCC)CC(CC)CCCC)(COC(=O)CCCC(=O)N(CC(CC)CCCC)CC(CC)CCCC)NC(=O)CCN1CCCCC1 (centres unmarked) [TxT-5-5A16b] | 59.1 nm

---

- Assay text: Average particle size and polydispersity index of lipid nanoparticles (dynamic light scattering)
- Type: physicochemical
- Study conditions: Table 5; EGFP mRNA-loaded lipid nanoparticles; TxT/DSPC/chol/PEG-DMG=50/3/47/1.5 (mol%); total flow rate 3.0 mL/min
# maps each entry to its Pdl
Readout type: Pdl

Compound | Recorded result
CCCCC(CC)CN(CC(CC)CCCC)C(=O)CCCC(=O)OCC(COC(=O)CCCC(=O)N(CC(CC)CCCC)CC(CC)CCCC)(COC(=O)CCCC(=O)N(CC(CC)CCCC)CC(CC)CCCC)NC(=O)CCN1CCCCC1 (centres unmarked) [TxT-5-5A16b] | 0.07
CCCCCCC(CCCCCC)COC(=O)CCCC(=O)OCC(COC(=O)CCCC(=O)OCC(CCCCCC)CCCCCC)(COC(=O)CCCC(=O)OCC(CCCCCC)CCCCCC)NC(=O)CCN1CCCCC1 [TxT-5-5E14] | 0.14
CCCCCCCCCCN(CCCCCCCCCC)C(=O)CCC(=O)OCC(COC(=O)CCC(=O)N(CCCCCCCCCC)CCCCCCCCCC)(COC(=O)CCC(=O)N(CCCCCCCCCC)CCCCCCCCCC)NC(=O)CCN1CCCCC1 [TxT-5-4A20] | 0.08
CCCCCCCCC(CCCCCC)CNC(=O)CCCC(=O)OCC(COC(=O)CCCC(=O)NCC(CCCCCC)CCCCCCCC)(COC(=O)CCCC(=O)NCC(CCCCCC)CCCCCCCC)NC(=O)CCN1CCCCC1 (stereo not drawn) [TxT-5-5A16β] | 0.06
CCCCCCCN(CCCCCCC)C(=O)CCCC(=O)OCC(COC(=O)CCCC(=O)N(CCCCCCC)CCCCCCC)(COC(=O)CCCC(=O)N(CCCCCCC)CCCCCCC)NC(=O)CCN1CCCCC1 [TxT-5-5A14] | 0.06
CCCCCCN(CCCCCC)C(=O)CCCC(=O)OCC(COC(=O)CCCC(=O)N(CCCCCC)CCCCCC)(COC(=O)CCCC(=O)N(CCCCCC)CCCCCC)NC(=O)CCN1CCCCC1 [TxT-5-5A12] | 0.13
CCCCCCCCN(CCCCCCCC)C(=O)CCCC(=O)OCC(COC(=O)CCCC(=O)N(CCCCCCCC)CCCCCCCC)(COC(=O)CCCC(=O)N(CCCCCCCC)CCCCCCCC)NC(=O)CCN1CCCCC1 [TxT-5-5A16] | 0.04
CCCCCCC(CCCC)CNC(=O)CCCC(=O)OCC(COC(=O)CCCC(=O)NCC(CCCC)CCCCCC)(COC(=O)CCCC(=O)NCC(CCCC)CCCCCC)NC(=O)CCN1CCCCC1 (stereo not drawn) [TxT-5-5A12β] | 0.05

---

In this section, each of the compounds is paired with its reported ζ-potential.
- Assay text: Zeta potential of lipid nanoparticles
- Assay type: physicochemical
- Study conditions: Table 1; Fluc mRNA-loaded lipid nanoparticles; TxT/DSPC/chol/PEG-DMG=50/15/35/1.5 (mol%)

Compound | ζ-potential
CCCCCN(CCCCC)C(=O)CCCC(=O)OCC(COC(=O)CCCC(=O)N(CCCCC)CCCCC)(COC(=O)CCCC(=O)N(CCCCC)CCCCC)NC(=O)CCN1CCCCC1 | -36.4 mV
CCCCCCCN(CCCCCCC)C(=O)CCCC(=O)OCC(COC(=O)CCCC(=O)N(CCCCCCC)CCCCCCC)(COC(=O)CCCC(=O)N(CCCCCCC)CCCCCCC)NC(=O)CCN1CCCCC1 | -3.4 mV
CCCCCCCCN(CCCCCCCC)C(=O)CCCC(=O)OCC(COC(=O)CCCC(=O)N(CCCCCCCC)CCCCCCCC)(COC(=O)CCCC(=O)N(CCCCCCCC)CCCCCCCC)NC(=O)CCN1CCCCC1 | -3.3 mV
CCCCCCC(CCCC)CNC(=O)CCCC(=O)OCC(COC(=O)CCCC(=O)NCC(CCCC)CCCCCC)(COC(=O)CCCC(=O)NCC(CCCC)CCCCCC)NC(=O)CCN1CCCCC1 (stereo not shown) | -6.0 mV
CCCCC(CC)CNC(=O)CCCC(=O)OCC(COC(=O)CCCC(=O)NCC(CC)CCCC)(COC(=O)CCCC(=O)NCC(CC)CCCC)NC(=O)CCN1CCCCC1 (stereo not shown) | -18.0 mV
CCCCCCN(CCCCCC)C(=O)CCCC(=O)OCC(COC(=O)CCCC(=O)N(CCCCCC)CCCCCC)(COC(=O)CCCC(=O)N(CCCCCC)CCCCCC)NC(=O)CCN1CCCCC1 | -6.7 mV
CCCCN(CCCC)C(=O)CCCC(=O)OCC(COC(=O)CCCC(=O)N(CCCC)CCCC)(COC(=O)CCCC(=O)N(CCCC)CCCC)NC(=O)CCN1CCCCC1 | -5.3 mV
